System: MDA-MB-435 melanoma
PROTOCOL_DESCRIPTION: NCI-60 one-dose screen, 48 h (100 = growth as untreated, 0 = no growth, -100 = all killed)
SETUP_CONDITIONS: 10 µM unless noted
This is part of a sample that, as a whole, favours compounds with a hit. Of some 83,000 tested, about 20% had one in any assay.

{"STRUCTURE_AS_SMILES": "CCC(C)(CC)c1ccc(O)c(C)c1", "UNIT_ABBREV": "%", "growth": 109}
{"STRUCTURE_AS_SMILES": "COC(=O)/C=C/c1cc(O)c2oc(-c3ccc(O)c(O)c3)c(C(=O)OC)c2c1", "UNIT_ABBREV": "%", "growth": -37.1}
{"STRUCTURE_AS_SMILES": "CC(=O)N1CCN(CCNC(=O)n2cc(-c3ccncc3)c(-c3ccc(O)c(Cl)c3)n2)CC1", "UNIT_ABBREV": "%", "growth": 103}
{"STRUCTURE_AS_SMILES": "CC(C)(CNC1CCCCC1)OC(=O)c1ccccc1", "UNIT_ABBREV": "%", "growth": 107}
{"STRUCTURE_AS_SMILES": "O=C(CN1CCN(c2cccc(Cl)c2)CC1)N1CCN(c2nnc(-c3ccc(Cl)cc3)c(-c3ccc(Cl)cc3)n2)CC1", "UNIT_ABBREV": "%", "growth": 72.3}

----------
Test system: HCC-2998 colon
PROTOCOL_DESCRIPTION: NCI-60 one-dose screen, 48 h
SETUP_CONDITIONS: 10 µM unless noted
This is part of a sample that, as a whole, favours compounds with a hit. Of some 83,000 tested, about 20% had one in any assay. Activity calls are given as the source filed them. The calls were made as follows: active = growth percent below 10; inactive = the rest.
Possible outcomes: active, inactive

{"MOLECULE": "CC(=O)CC(=O)OC/C=C(/C)CCC=C(C)C", "CLASS_LABEL": "inactive"}
{"MOLECULE": "Nc1cc(N)c2nc(NCCc3ccc(Cl)c(Cl)c3)cnc2c1", "CLASS_LABEL": "inactive"}
{"MOLECULE": "Cc1ccc(S(=O)(=O)N/N=C2\\CC3CCC2C3)cc1 (stereo not given)", "CLASS_LABEL": "inactive"}
{"MOLECULE": "CC(CCN1CCN(CCC(C)CC(C)(C)C)C1CC(C)CC(C)(C)C)CC(C)(C)C (stereo not given)", "CLASS_LABEL": "inactive"}
{"MOLECULE": "COc1cccc2c1nc1cccc(OC)c1[n+]2[O-]", "CLASS_LABEL": "active"}
{"MOLECULE": "COc1ccc(OC)c(Cn2cc3c(c2-c2ccccc2)CCc2cnoc2-3)c1", "CLASS_LABEL": "inactive"}
{"MOLECULE": "CCCCCCCCCCCCc1ccc([N+](CC)(CC)CC)cc1", "CLASS_LABEL": "inactive"}
{"MOLECULE": "C[n+]1c2ccccc2c(Nc2ccc(NS(=O)(=O)CCCCN=C(N)N)cc2)c2ccc(N)cc21", "CLASS_LABEL": "inactive"}
{"MOLECULE": "COc1cc(-c2nn(-c3ccc(NC(=O)c4cc(Cl)cc(Cl)c4)cc3)cc2-c2ccncc2)ccc1Cl", "CLASS_LABEL": "inactive"}
{"MOLECULE": "COc1ccc(C2C3(C#N)C(N)=NC(=C(C#N)C#N)C23C#N)cc1OC (stereo not given)", "CLASS_LABEL": "inactive"}

----------
Tested on: HOP-92 NSCLC
PROTOCOL_DESCRIPTION: NCI-60 one-dose screen, 48 h (100 = growth as untreated, 0 = no growth, -100 = all killed)
SETUP_CONDITIONS: 10 µM
The panel holds about 83,000 compounds, 20% with a hit somewhere; the sample as a whole holds those more often.
Mark condition met for reported growth of 80% or greater; mark condition not met for anything smaller.

{"COMPOUND": "COC(=O)c1ccc2[nH]c(O)c(C(=Nc3ccc(N(C)C(=O)CN4CCN(C)CC4)cc3)c3ccc(CCO)cc3)c2c1", "CLASS_LABEL": "condition not met"}
{"COMPOUND": "COc1nc(OC)nc(-c2cc(-c3cc(OC)c(OC)c(OC)c3)no2)n1", "CLASS_LABEL": "condition met"}
{"COMPOUND": "COc1ccc(/C=C(/C(=O)N2CCN(c3ccc(C)cc3)CC2)c2cc(OC)c(OC)c(OC)c2)cc1N", "CLASS_LABEL": "condition not met"}
{"COMPOUND": "COC(=O)c1ccc2[nH]c(O)c(C(=Nc3ccc(N(C)C(=O)CN4CCN(C)CC4)cc3)c3ccc(OC)cc3)c2c1", "CLASS_LABEL": "condition not met"}
{"COMPOUND": "Cc1c(CN(C)C)cc(C(C)C)cc1C(C)C", "CLASS_LABEL": "condition met"}
{"COMPOUND": "CCOC(=O)NC1=NCC(C)(C)S1", "CLASS_LABEL": "condition met"}
{"COMPOUND": "COc1ccc(-c2cn3ccnc3c(-c3ccc4ncn(C5CCCCC5)c4c3)n2)cc1", "CLASS_LABEL": "condition not met"}
{"COMPOUND": "Oc1ccccc1/C=N/N=C/c1c(O)ccc2ccccc12", "CLASS_LABEL": "condition not met"}
{"COMPOUND": "Brc1ccc(-c2nc3ccccc3s2)cc1", "CLASS_LABEL": "condition met"}
{"COMPOUND": "COc1cc2c(cc1OC)C(Cc1cc(OC)c(OC)cc1[N+](=O)[O-])=NCC2", "CLASS_LABEL": "condition not met"}
{"COMPOUND": "CCCNC(=O)Oc1ccc(/C(=C(/C)Cc2ccc(OC)cc2)c2ccc(OCCN3CCCC3)cc2)cc1", "CLASS_LABEL": "condition not met"}
{"COMPOUND": "CCCC(=O)NNc1[nH]c(-c2cc(OC)c(OC)c(OC)c2)cc1C(=O)OCC", "CLASS_LABEL": "condition met"}
{"COMPOUND": "Cc1ccc(C(=O)Nc2ccc(CN3CCN(C)CC3)c(C(F)(F)F)c2)cc1C#Cc1cnc(N)c2ccc(C#N)cc12", "CLASS_LABEL": "condition not met"}
{"COMPOUND": "CCCCCCCCCc1cc[n+](CC(=O)c2ccc([N+](=O)[O-])cc2)cc1", "CLASS_LABEL": "condition not met"}
{"COMPOUND": "CCCCCCCCC1OC1CCCCCCCC(=O)O (stereo not drawn)", "CLASS_LABEL": "condition met"}
{"COMPOUND": "COc1ccc(-c2nc(SCC(C)C)nc(Nc3ccc(C(=O)O)cc3)c2C#N)cc1", "CLASS_LABEL": "condition met"}
{"COMPOUND": "Clc1ccc(N/N=C(\\c2ccccc2)c2ccccn2)nc1", "CLASS_LABEL": "condition not met"}
{"COMPOUND": "Nc1ncn([C@@H]2O[C@H](CO)[C@@H](O)C2(F)F)c(=O)n1", "CLASS_LABEL": "condition not met"}
{"COMPOUND": "c1ccc(C(=NNc2nc3ccccc3o2)c2ccccn2)nc1", "CLASS_LABEL": "condition not met"}
{"COMPOUND": "CC(O)C(N)=O (stereo not drawn)", "CLASS_LABEL": "condition met"}
{"COMPOUND": "CC1(C)CC(=O)C2=C(C1)Oc1nc(N)c(C#N)c(N)c1C2c1ccc(F)cc1 (stereo not drawn)", "CLASS_LABEL": "condition not met"}
{"COMPOUND": "O=C(/C=C/c1ccc(Br)cc1)c1ccccc1", "CLASS_LABEL": "condition met"}
{"COMPOUND": "CC(C)(C)C(=O)OCOP(=O)(OCOC(=O)C(C)(C)C)C1CC(O)N(O)C1=O (stereo not drawn)", "CLASS_LABEL": "condition not met"}
{"COMPOUND": "COc1ccc2c(N)ncc(C#Cc3cc(C(=O)Nc4ccc(CN5CCN(C)CC5)c(C(F)(F)F)c4)cnc3C)c2c1", "CLASS_LABEL": "condition not met"}
{"COMPOUND": "Cc1ncc(C(=O)Nc2ccc(CN3CCN(C)CC3)c(C(F)(F)F)c2)cc1C#Cc1c(N)ncc2ccccc12", "CLASS_LABEL": "condition not met"}
{"COMPOUND": "COc1cc2ncnc(-n3ncc4cc(NC(=O)Nc5ccc(Cl)c(C)c5)ccc43)c2cc1OC", "CLASS_LABEL": "condition met"}
{"COMPOUND": "O=C(NC1CCN(Cc2ccccc2)CC1)c1cc(-c2cccnc2)nc2ccc(Cl)cc12", "CLASS_LABEL": "condition not met"}
{"COMPOUND": "COc1ccc(/C=C/C(=O)/C=C/c2cc3ccccc3[nH]c2=O)cc1", "CLASS_LABEL": "condition met"}
{"COMPOUND": "O=C(/C=C1\\C(=O)N(Cc2ccccc2)c2ccccc21)c1ccc(OCCN2CCCCC2)cc1", "CLASS_LABEL": "condition not met"}
{"COMPOUND": "CN1CCN(Cc2ccc(NC(=O)c3cncc(C#Cc4c(N)ncc5ccc(F)cc45)c3)cc2C(F)(F)F)CC1", "CLASS_LABEL": "condition not met"}
{"COMPOUND": "Nc1cc2c(cc1Br)[nH]c(=O)c1ccccc12", "CLASS_LABEL": "condition not met"}
{"COMPOUND": "CCOC(=O)NNc1[nH]c(-c2ccc(OC)cc2)cc1C#N", "CLASS_LABEL": "condition not met"}
{"COMPOUND": "CCOP1(=O)CC(C)=C(Cl)C(P(=O)(O)O)C1 (stereo not drawn)", "CLASS_LABEL": "condition met"}
{"COMPOUND": "CCCCn1c(Cc2ccc(OC)cc2)nc2cc(OC)c(OC)cc2c1=O", "CLASS_LABEL": "condition not met"}
{"COMPOUND": "COC(=O)Nc1nc2ccc(C(=O)c3ccccc3N(C)C3COC3)cc2[nH]1", "CLASS_LABEL": "condition not met"}
{"COMPOUND": "O=C(Nc1cccc(Cn2c(=O)[nH]c3ccc(Oc4ncccn4)cc3c2=O)c1)c1cccc(F)c1", "CLASS_LABEL": "condition not met"}
{"COMPOUND": "O=C(O)c1occ(Cl)c1Cl", "CLASS_LABEL": "condition met"}
{"COMPOUND": "O=C(Oc1ccccc1)c1ccccc1Cl", "CLASS_LABEL": "condition met"}
{"COMPOUND": "CC(=O)Nc1nc(C)c(C(=O)NNC(=O)Nc2ccccc2)s1", "CLASS_LABEL": "condition not met"}
{"COMPOUND": "CC(=O)CCS(=O)c1ccccc1 (stereo not drawn)", "CLASS_LABEL": "condition met"}
{"COMPOUND": "NC(N)=Nc1ccc(/C=C2\\C=Cc3ccccc32)cc1", "CLASS_LABEL": "condition not met"}
